- System: BT-549 breast
- ASSAY_SUMMARY: NCI tumour cell line growth inhibition, 48 h
MEASURED_QUANTITY: TGI

Exercise: Recorded TGI for COc1ccc2c(c1)C1Oc3ccccc3CC1(O)CO2 (stereo unspecified) with BT-549 breast, please?
Solution: > 100 µM

Exercise: Recorded TGI for O=C(/C=C/C=C/c1ccccc1)CCc1ccccc1 with BT-549 breast, please?
Solution: > 100 µM

Exercise: Recorded TGI for O=c1[nH]c(=S)c2cc3c(=S)[nH]c(=O)n(CCC(c4ccccc4)(c4ccccc4)c4ccccc4)c3nc2n1CCC(c1ccccc1)(c1ccccc1)c1ccccc1 with BT-549 breast, please?
Solution: > 100 µM

Exercise: Recorded TGI for COc1ccc(-c2cc(C3CC3)nc(SCC(=O)O)c2C#N)cc1 with BT-549 breast, please?
Solution: > 100 µM

Exercise: Recorded TGI for CN(C)NC1=NS(=O)(=O)c2cc3c(cc2S1)N(N(C)C)C(=O)c1cc2c(cc1N(N(C)C)C3=O)SC(NN(C)C)=NS2(=O)=O with BT-549 breast, please?
Solution: > 10 µM

Exercise: Recorded TGI for [N-]=[N+]=C(C(=O)OCC#CCOC(=O)C(=[N+]=[N-])S(=O)(=O)c1ccccc1)S(=O)(=O)c1ccccc1 with BT-549 breast, please?
Solution: > 10 µM

Exercise: Recorded TGI for O=C1OC(C2Cc3ccccc3C2=O)c2ccccc21 (stereo unspecified) with BT-549 breast, please?
Solution: > 100 µM
